# Test system: Plasmodium berghei
# measurement.description: Luciferase/luciferin-expressing antifolate-resistant parasites were used to infect a culture of HepG2 cells that were pre-incubated with compounds. Infected hepatocytes emit light due to the luciferase reaction. Assay results are presented as the percent inhibition of light emission compared to control. […]
# Type: functional
# experimental.setup: sporozoite, HEPG2TOX_HILL_SLOPE 3.19, HEPG2TOX_R_SQUARED 0.9, PBLUC_HILL_SLOPE 4.13, PBLUC_R_SQUARED 0.554, read-out: LUCIFERASE INFECTION ASSAY - IC50
property.name: IC50 (µM)

query_smiles=CCOc1cccc2c(C)nc(Nc3nc(=O)c4ccccc4[nH]3)nc12 assayed_target="Plasmodium berghei" recorded_number=4.27

====

# Test system: Plasmodium berghei
# measurement.description: Luciferase/luciferin-expressing antifolate-resistant parasites were used to infect a culture of HepG2 cells that were pre-incubated with compounds. Infected hepatocytes emit light due to the luciferase reaction. Assay results are presented as the percent inhibition of light emission compared to control. […]
# Format: functional
# experimental.setup: sporozoite, FFLUC_HILL_SLOPE 0.343, FFLUC_R_SQUARED 0.0189, read-out: LUCIFERASE INFECTION ASSAY - IC50
property.name: IC50

query_smiles=O=c1c2c3c(sc2nc(SCc2cc([N+](=O)[O-])cc4c2OCOC4)n1C1CCCC1)CCCC3 result="> 10 µM"

====

# System: Plasmodium berghei
# measurement.description: Luciferase/luciferin-expressing antifolate-resistant parasites were used to infect a culture of HepG2 cells that were pre-incubated with compounds. Infected hepatocytes emit light due to the luciferase reaction. Assay results are presented as the percent inhibition of light emission compared to control. […]
# Type: functional
# experimental.setup: sporozoite, HEPG2TOX_HILL_SLOPE 2.34, HEPG2TOX_R_SQUARED 0.973, PBLUC_HILL_SLOPE 2.94, PBLUC_R_SQUARED 0.59, read-out: LUCIFERASE INFECTION ASSAY - IC50
pIC50: −log10 of the molar value.
property.name: pIC50

query_smiles=OCc1ccc(-c2ccc3ncc(-c4cccc(CO)c4)n3n2)cc1 assayed_target="Plasmodium berghei" recorded_number=5.87

====

# System: Plasmodium berghei
# measurement.description: Luciferase/luciferin-expressing antifolate-resistant parasites were used to infect a culture of HepG2 cells that were pre-incubated with compounds. Infected hepatocytes emit light due to the luciferase reaction. Assay results are presented as the percent inhibition of light emission compared to control. […]
# Format: functional
# experimental.setup: sporozoite, PBLUC_HILL_SLOPE 17.6, PBLUC_R_SQUARED 0.387, read-out: LUCIFERASE INFECTION ASSAY - IC50
pIC50: −log10 of the molar value.
property.name: pIC50

compound="N#CC(C(=O)c1cc(S(=O)(=O)N2CCc3ccccc3C2)ccc1Cl)c1ccccn1 (stereo unspecified)" recorded_number=5.48

====

# Test system: Plasmodium berghei
# measurement.description: Luciferase/luciferin-expressing antifolate-resistant parasites were used to infect a culture of HepG2 cells that were pre-incubated with compounds. Infected hepatocytes emit light due to the luciferase reaction. Assay results are presented as the percent inhibition of light emission compared to control. […]
# Format: functional
# experimental.setup: sporozoite, PBLUC_HILL_SLOPE 11.7, PBLUC_R_SQUARED 0.117, read-out: LUCIFERASE INFECTION ASSAY - IC50
pIC50: −log10 of the molar value.
property.name: pIC50

query_smiles=Clc1ccc(N/N=C/Cc2nnnn2-c2ccccc2)cc1 recorded_number=5.00

Cited source: ChEMBL document CHEMBL4483862
